# MEASURED_TARGET: T1, Fc-binding protein (the ZZ domain of ProA)
# T1 construct: domain: ZZ domain of ProA; the construct is not described
# ASSAY_SUMMARY: flow cytometry on cells expressing the Fc-binding ZZ domain on their surface; given as a measure of expression
REPORTED_ENDPOINT: S:B Expression

Ask: What does the data say about its S:B Expression? Entry: Antibody of light chain E1 (E1chicken) paired with the heavy chain against IGSF8 (antibody, V domains shown, also called HC-IGSF8) VH: AVTLDESGGGLQTPGGGLSLVCKASGFSISSYEMQWVRQAPGKGLEWVAGIDDDGSSRAYAPAVKGRATISRDNGQSTVRLQLNNLRAEDTGTYYCAKTIYAATLNAGEIDAWGHGTEVIVSS VL: ALTQPSSVSANPGETVKITCSGSSGSGYYGWYQQKSPGSAPVTLIYDNDKRPSDIPSRFSGSKSGSTGTLTITGVQADDEAVYFCGSADNNYTGIFGAGTTLTVL
Result: 2 S:B

Ask: What does the data say about its S:B Expression? Entry: Antibody of common light chain C11 (C11chicken) paired with the heavy chain against CD151 (antibody, V domains shown, also called HC-CD151) VH: AVTLDESGGGLQMPGGALSLVCKASGFTFSSYGMEWVRQAPGKGLEWVAGISSGGGSTDYGTAVKGRATISRDNGQSTVRLQLNNLRAEDTGTYFCAKSAYGGTWDGDDIDAWGHGTEVIVSS VL: ALTQPSSVSANPGETVKITCSGGGSWYGSYYYGWYQQKSPGSAPVTLIYNNDKRPSDIPSRFSGSESGSTATLTITGVQAEDEAVYFCGGYDSTTTDMFGAGTTLTVL
Result: 11.5 S:B

Ask: What does the data say about its S:B Expression? Entry: Antibody of common light chain B9 (B9chicken) paired with the heavy chain against CD147 (antibody, V domains shown, also called HC-CD147) VH: AVTLDESGGGLQTPGGGLSLVCKASGFTFSSYAMYWVRQAPGKGLQWVAGISRDGSSGRYGAAVKGRATISRDNGQSTVRLQLNNLRAEDTATYFCAKSGYGDYTSADEIDAWGHGTEVIVSS VL: ALTQPSSVSANPGETVKITCSGGGSSNYYGWYQQKSPGSAPVTLIYGTNKRPSDIPSRFSGSKSGSTGTLTITGVQADDEAVYFCGSADSSTNAGIFGAGTTLTVL
Result: 17 S:B

Ask: What does the data say about its S:B Expression? Entry: Antibody of light chain D3 (D3chicken) paired with the heavy chain against CD63 (antibody, V domains shown, also called HC-CD63) VH: AVTLDESGGGLQTPGGALSLVCKASGFTFSDRGMHWVRQAPGKGLEWVAGIRSTGSFTLYGAAVKGRATISRDDGQSTLRLQLNNLRAEDTGTYYCAKSAGGYGCGRGWCGVDDIDAWGHGTEVIVSS VL: ALTQPSSVSANPGETVKITCSGDDRWYGWYQQKSPGSAPVTLIYSNDKRPSDIPSRFSGSKSGSTGTLTITGVQADDEAVYFCGSRDSSYAGIFGAGTTLTVL
Result: 3.9 S:B

Ask: What does the data say about its S:B Expression? Entry: Antibody of common light chain C11 (C11chicken) paired with the heavy chain against CD59 (antibody, V domains shown, also called HC-CD59) VH: AVTLDESGGGLQTPGGGLSLVCKASGFDFSSFDMVWVRQAPGKGLEWVAGISYSNTDTSYAPAVDGRATISRDNGQSTVRLQLNNLRAEDSATYYCAKSAGGCCYRADNIDAWGHGTEVIVSS VL: ALTQPSSVSANPGETVKITCSGGGSWYGSYYYGWYQQKSPGSAPVTLIYNNDKRPSDIPSRFSGSESGSTATLTITGVQAEDEAVYFCGGYDSTTTDMFGAGTTLTVL
Result: 12.2 S:B
